# ASSAY_NOTES: Primary fluorescence-based thiol-reactive (MSTI) qHTS assay for identification of artifact compounds. (AID 1845221); further: nearly all actives have a fitted effect of over 65% in size
# DETAILS: MSTI thiol-reactivity probe, 1 h; series mostly up to 53.8 µM
Inconclusive results are not listed. Active and inactive are the calls of the source. The call rests on the fitted dose curve; in most records, active means well fitted inhibition curve with a large enough effect; inconclusive means small, poorly fitted or top-dose-only effect; inactive means no such curve, though single readings can be large or run the other way.
Outcomes: active, inactive

1. Cc1sc2c(c1C)C(c1ccc(Cl)cc1)=N[C@@H](CC(N)=O)c1nnc(C)n1-2 :: inactive
2. c1ccc([C@@H]2C[C@H]2NC2CCNCC2)cc1 :: inactive
3. Cc1cccc(NC(=O)N[C@H]2CN(C)c3ccccc3C(c3ccccc3)=N2)c1 :: inactive
4. COc1cc(N2CCN(C)CC2)ccc1N :: active
5. CC1CCCC(O)CCC/C=C/c2cc(O)cc(O)c2C(=O)O1 (centres undefined) :: active
6. CCC1NC(=O)C2C(Cl)C(Cl)CN2C(=O)C(CC)NC(=O)CC(c2ccccc2)NC(=O)C(CO)NC1=O (centres undefined) :: active
7. C[C@]12CC[C@H](OC3OC(CO)C(O)C(O)C3OC3OC(CO)C(O)C(O)C3O)C[C@@H]1CC[C@@H]1C2CC[C@]2(C)[C@@H](C3=CC(=O)OC3)CC[C@]12O (some centres undefined) :: inactive
8. CC(=O)OC[C@]12C[C@H](OC(=O)CC(C)C)C(C)=C[C@H]1O[C@@H]1[C@H](O)C[C@@]2(C)[C@]12CO2 :: inactive
9. CCCN(CCC)CCc1ccc(OC)c(OCCc2ccccc2)c1 :: inactive
10. NC(=O)c1ncn2c1CN=C(c1ccccc1Br)c1cc(F)ccc1-2 :: inactive
11. C=C(C)[C@@]12O[C@@H]1[C@@]1(C)C(=CC2=O)CC[C@@H](OC(C)=O)[C@@H]1C :: inactive
12. CC1=CC2OC3[C@H](O)C[C@@](C)([C@]34CO4)[C@@]2(CO)[C@H](O)C1=O (some centres undefined) :: inactive
13. CC(=O)O[C@@H]1[C@H]2CC[C@H]3[C@@](C)(O)[C@@H]4C[C@H](O)C(C)(C)[C@@]4(O)[C@H](O)C[C@@]13C[C@@]2(C)O :: inactive
14. CCCCCn1cc(C(=O)Cc2ccccc2OC)c2ccccc21 :: inactive
15. CC1CCCCCC(=O)c2c(O)cc(O)cc2CC(=O)O1 (centres undefined) :: inactive
16. C/C=C(\C)C(O)C(C)/C=C(C)/C=C/C/C(C)=C/Cc1nc(OC)c(OC)c(O[C@@H]2O[C@@H](C)[C@H](O)[C@@H](O)[C@H]2O)c1C (some centres undefined) :: inactive
17. O=C(OC[C@H]1O[C@@H](Oc2ccc(O)cc2CO)[C@H](O)[C@@H](O)[C@@H]1O)c1ccccc1 :: active
18. C1=C(c2cnc[nH]2)c2ccsc2CC1 :: active
19. COc1ccc(CCNCc2ccc(OC)c3ccccc23)cc1 :: inactive
